Cited source: patent US20080139608A1

TARGET OR TEST SYSTEM: human adenosine A1 receptor (Homo sapiens)
Construct: expressed in transfected cells; host or cells: CHO cells
Sequence (P30542 whole entry): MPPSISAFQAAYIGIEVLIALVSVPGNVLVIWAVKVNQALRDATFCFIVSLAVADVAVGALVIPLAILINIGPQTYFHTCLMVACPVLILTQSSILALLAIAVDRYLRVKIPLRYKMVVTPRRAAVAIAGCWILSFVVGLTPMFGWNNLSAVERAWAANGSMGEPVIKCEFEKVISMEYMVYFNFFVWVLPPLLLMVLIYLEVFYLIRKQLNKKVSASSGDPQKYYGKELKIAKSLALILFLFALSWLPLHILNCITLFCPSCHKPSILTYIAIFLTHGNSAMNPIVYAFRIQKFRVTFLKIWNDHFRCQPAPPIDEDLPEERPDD
METHOD SUMMARY: Radioligand binding assay, displacement of specific [3H]DPCPX binding
CONDITION DESCRIPTION: CHO cells expressing human adenosine A1 receptors; n = 3; read-out: A1 Ki ± SEM, displacement of specific [3H]DPCPX binding
PROPERTY MEASURED: Ki (nM)
Quick note: give the figure in nM, leave out the unit.

input: Give its Ki value. Item: c1ccc(-c2cc(-c3ccccc3)c3[nH]c(C4CCCC4)nc3n2)cc1
output: 0.62
